Experiment: α-syn inclusion formation in dox-inducible neuroblastoma cells
Assay type: cell-based
Conditions: human, m17d neuroblastoma cells; read-out: concentration from which a small level of toxicity is seen (cell confluence)
Procedure: The dox-inducible neuroblastoma cell line M17D-TR/αS3K::YFP was used to evaluate the effect of compounds in preventing the formation of inclusion following induction with Dox. Dox-inducible neuroblastoma cells M17D-TR/αS-3K::YFP have been used previously. 96-well plates were used with cellular density of 30,000 cells per well. Compounds were added after 24 h and aS-3K::YFP transgene expression was induced 48 h later. […]
OBSERVATION TYPE: MCC

For the compound c1cc(Nc2ncnc(Nc3cccc4[nH]ccc34)n2)c2cc[nH]c2c1 , what MCC is on record?
≥ 10 µM
